- Assayed Target: binding of substance P
- Test Details: antagonism of the binding of substance P on rat cortical membranes and IM9 lymphoblasts
- Details: rat cortical membranes and/or IM9 lymphoblasts (not said which); read-out: Ki, antagonizes the binding of substance P
Counter-ions that a name gives are not always drawn.
Quantity: pKi
pKi field: float, defined as -log10 of concentration (mol/L).

**Q:** Return reported pKi. Input compound: O=C(Cc1ccccc1)N1CCCC(CCN2CCC(Cc3ccccc3)CC2)(c2ccc(Cl)c(Cl)c2)C1 (stereo not shown) [Compound 2, hydrochloride]
**A:** 8.08
